meta.source: paper PMC11952830

Target: actin (rabbit muscle) (rabbit, UniProt P68135 1-377)
Test: FP; actin filaments
No end group written: not given here. TMR = tetramethylrhodamine
parameter: pKd
The value called pKd is obtained by taking minus log10 of the concentration in mol/L.

Ask: What measured pKd goes with {TMR}-MPAKTPIYLKAANNKKGKKFK (domain or fragment) [Cdc42EP3 (1-21), TMR labeled at the N-terminus] ?
Result: 4.72
